Target: Corticotropin-releasing factor receptor 2/Corticotropin-releasing factor-binding protein (Homo sapiens, UniProt P24387+Q13324)
Sequence (Q13324 whole entry): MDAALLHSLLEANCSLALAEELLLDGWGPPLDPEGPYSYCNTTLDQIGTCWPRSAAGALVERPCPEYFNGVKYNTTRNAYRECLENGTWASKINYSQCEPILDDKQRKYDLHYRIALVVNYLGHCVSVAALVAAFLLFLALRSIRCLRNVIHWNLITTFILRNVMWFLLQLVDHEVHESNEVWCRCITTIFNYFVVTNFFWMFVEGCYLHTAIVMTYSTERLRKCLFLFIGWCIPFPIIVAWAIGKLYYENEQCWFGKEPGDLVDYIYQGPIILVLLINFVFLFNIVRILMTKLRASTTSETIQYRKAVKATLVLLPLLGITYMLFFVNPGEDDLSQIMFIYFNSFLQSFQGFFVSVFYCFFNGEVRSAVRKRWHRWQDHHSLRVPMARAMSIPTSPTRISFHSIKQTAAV
Sequence (P24387 whole entry): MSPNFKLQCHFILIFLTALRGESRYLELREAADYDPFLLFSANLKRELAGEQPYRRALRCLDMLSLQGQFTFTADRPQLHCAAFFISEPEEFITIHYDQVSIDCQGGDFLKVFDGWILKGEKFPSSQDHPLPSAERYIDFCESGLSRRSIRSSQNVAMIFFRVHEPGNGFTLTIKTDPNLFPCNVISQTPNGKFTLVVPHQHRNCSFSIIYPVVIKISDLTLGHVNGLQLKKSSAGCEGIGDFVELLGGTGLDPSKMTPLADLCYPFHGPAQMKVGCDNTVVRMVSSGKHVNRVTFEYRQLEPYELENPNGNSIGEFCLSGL
Test: Dose Response confirmation of uHTS hits for small molecule antagonists of the CRF-binding protein and CRF-R2 receptor complex.
Assay type: functional
Conditions: read-out: IC50_Mean
Activity calls are given as the source filed them. No stated cut-off is given here; in the data, actives have a measured IC50 and inactives only a lower limit.
Write down the outcome that applies. Available outcomes: 1.0 = active, 0.0 = inactive

{"COMPOUND STRUCTURE STRING": "Cc1nn(-c2cccc(Cl)c2)c2nc(C(F)(F)F)[nH]c(=O)c12", "ASSIGNED LABEL": 1.0}

Challenge: Record lookup: outcome of this test for CCOC(=O)c1c(N)sc(C(=O)N2CCCCC2)c1C ?
Response given: 0.0

Challenge: Moving on to COc1cc(/C=C2\SC(=S)N(NS(=O)(=O)c3ccc(C)cc3)C2=O)cc(OC)c1OC
Response given: 1.0

Challenge: Moving on to COc1ccnc(CSC(=N)Nc2ccc(F)cc2)c1
Response given: 0.0

Challenge: Moving on to COc1ccc(CCNc2nc(N3CCCCC3)nc(N3CCCCC3)n2)cc1OC
Response given: 1.0

The measurements presented in this section are drawn from ChEMBL document CHEMBL1201862.
